test system: A549; test: Cytotoxicity against human A549 cells after 48 hrs by MTT colorimetric assay; format: functional, cell-based; conditions: A549, 48 h
READOUT NAME: log10 of IC50 (log10 of the value in µg/mL)
Log scale reminder: IC50 in µg/mL, then log10 taken.

Below, 3 compounds whose answers are already recorded.
1. C=C1C(=O)[C@]23C[C@H]1CC[C@H]2[C@]12CO[C@@H](CC1=O)C(C)(C)[C@H]2[C@H](O)C3=O | 1.43
2. C=C1C(=O)[C@]23C[C@H]1CC[C@H]2[C@@]12CO[C@@]3(O)[C@@H](O)[C@@H]1C(C)(C)C=CC2=O | 0.40
3. C=C1C(=O)[C@]23C[C@H]1CC[C@H]2[C@]1(COC(C)=O)C(=O)C=CC(C)(C)[C@H]1[C@H](OC(C)=O)C3=O | 1.79

Prompt line: # query: log10 of IC50 of entry `C=C1C(=O)[C@]23C[C@H]1CC[C@H]2[C@]1(COC3=O)C(=O)C=CC(C)(C)[C@H]1C=O`
Response line: 0.35

Prompt line: Param item: `C=C1C(=O)[C@]23C[C@H]1CC[C@H]2[C@]12CO[C@@H](CC1=O)C(C)(C)[C@H]2[C@H](OC(=O)CCCCl)C3=O`
Response line: 1.83
